- SYSTEM_NAME: T1, CTLA-4 on human T lymphocytes (PBMC, CD3+ T cells) (human, UniProt P16410 36-223)
- T1 sequence (looked up): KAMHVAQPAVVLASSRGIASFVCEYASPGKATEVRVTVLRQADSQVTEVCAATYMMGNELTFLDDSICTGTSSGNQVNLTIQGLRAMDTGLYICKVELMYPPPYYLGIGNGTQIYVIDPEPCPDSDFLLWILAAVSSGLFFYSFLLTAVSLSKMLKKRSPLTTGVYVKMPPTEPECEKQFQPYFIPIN
- ASSAY_INFO: cell-based or functional assay
Measured IL-2 secretion, pg/ml, at 30 ug/ml, N = 2 of individual entries
Express your answer in pg/mL, writing the number without its unit.

Before answering, review these 3 worked examples.
>  <BINDER>
92C8B6 fully human CTLA-4 antibody (human IgG1, kappa) (antibody, V domains shown, also called mAb42; mAb042) VH: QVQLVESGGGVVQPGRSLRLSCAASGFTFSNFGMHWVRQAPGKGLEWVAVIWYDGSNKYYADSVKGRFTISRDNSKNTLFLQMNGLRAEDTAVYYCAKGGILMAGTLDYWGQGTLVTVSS VL: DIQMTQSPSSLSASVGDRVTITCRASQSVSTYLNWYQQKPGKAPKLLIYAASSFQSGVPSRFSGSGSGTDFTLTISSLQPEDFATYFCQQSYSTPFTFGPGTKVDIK

>  <REPORTED>
6590

$$$$
>  <BINDER>
31C12F3 fully human CTLA-4 antibody (human IgG1, kappa) (antibody, V domains shown, also called mAb010) VH: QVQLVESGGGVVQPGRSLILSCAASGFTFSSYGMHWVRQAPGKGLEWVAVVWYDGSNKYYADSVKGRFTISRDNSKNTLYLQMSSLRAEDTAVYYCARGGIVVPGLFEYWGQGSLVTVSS VL: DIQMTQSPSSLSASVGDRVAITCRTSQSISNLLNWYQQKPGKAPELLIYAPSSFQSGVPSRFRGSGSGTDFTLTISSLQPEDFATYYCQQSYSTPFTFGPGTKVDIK

>  <REPORTED>
7370

$$$$
>  <BINDER>
97A8D1 fully human CTLA-4 antibody (human IgG1, kappa) (antibody, V domains shown, also called mAb49; mAb049) VH: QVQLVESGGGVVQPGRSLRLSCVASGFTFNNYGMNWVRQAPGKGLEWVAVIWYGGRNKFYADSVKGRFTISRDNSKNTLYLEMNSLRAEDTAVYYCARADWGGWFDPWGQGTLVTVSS VL: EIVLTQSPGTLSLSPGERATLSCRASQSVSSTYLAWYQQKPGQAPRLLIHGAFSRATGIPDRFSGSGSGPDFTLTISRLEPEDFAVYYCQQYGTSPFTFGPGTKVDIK

>  <REPORTED>
7540

$$$$

Alright, here's another binder for you.
Looking for the measured IL-2 secretion, pg/ml, at 30 ug/ml, N = 2 of 40C4C6 fully human CTLA-4 antibody (human IgG1, kappa) (antibody, V domains shown, also called mAb09; mAb009) VH: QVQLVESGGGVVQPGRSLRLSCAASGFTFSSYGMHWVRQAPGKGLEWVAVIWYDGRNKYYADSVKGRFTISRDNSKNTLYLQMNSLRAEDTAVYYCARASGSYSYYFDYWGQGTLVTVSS VL: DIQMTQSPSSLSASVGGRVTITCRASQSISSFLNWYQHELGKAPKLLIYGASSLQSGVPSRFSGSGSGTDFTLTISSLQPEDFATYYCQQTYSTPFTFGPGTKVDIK , can you help?
7410

Origin of measurements: patent US20210324080A1
